From: ChEMBL document CHEMBL3352406

# test.name: Drug level in concanavalin A-induced Balb/c mouse at 10 mg/kg, po dosed 2 hrs before concanavalin A challenge measured 3 hrs post dosing
# Assay type: ADME, organism-based
# Parameters: dose 10 mg/kg, route oral
# assay.conditions: in vivo, read-out: Drug uptake
Recorded concentration at 3 h, one value per entry.
Give just the number in ng/mL; leave the unit off.

COc1ccc(-c2cc3c(cc2[C@@H]2CCN(C)C[C@@H]2C)N2C(=NNC(=O)[C@H]2C)CO3)c(F)c1 664

Shifting focus to the compound that follows.
Reported concentration at 3 h, compound C[C@@H]1C(=O)NN=C2COc3cc(-c4ccccc4F)c([C@@H]4CCN(C)C[C@@H]4C)cc3N21 : ____
135

###

# test.name: Plasma clearance in mouse at 3 mg/kg, iv or 10 mg/kg, po
# Format: ADME, organism-based
# assay.conditions: plasma
quantity.kind: clearance (mL/min/kg)
Give just the number in mL/min/kg; leave the unit off.

molecule	clearance [mL/min/kg]
C[C@@H]1C(=O)NN=C2COc3cc(-c4ccccc4F)c(N(C)C4(C)CN(C)C4)cc3N21	51.7
C[C@@H]1C(=O)NN=C2COc3cc(-c4ccccc4F)c(C4CCN(C)CC4(C)C)cc3N21 (stereo partly specified)	31.7

Reported clearance, molecule C[C@@H]1C(=O)NN=C2COc3cc(-c4ccccc4F)c([C@@H]4CCNC[C@@H]4C)cc3N21 : ____
63.3

Reported clearance, molecule C[C@@H]1C(=O)NN=C2COc3cc(-c4ccccc4F)c([C@H]4CCN(C)C4)cc3N21 : ____
70

Reported clearance, molecule C[C@@H]1C(=O)NN=C2COc3cc(-c4ccccc4)c(N(C)C4(C)CN(C)C4)cc3N21 : ____
100

Reported clearance, molecule C[C@@H]1CN(C)CC[C@@H]1c1cc2c(cc1-c1ccccc1F)OCC1=NNC(=O)[C@@H](C)N12 : ____
26.7

###

# Test system: Mus musculus
# test.name: Unbound clearance in mouse at 3 mg/kg, iv or 10 mg/kg, po
# Format: ADME, organism-based
# assay.conditions: in vivo
quantity.kind: CL free (L/h/kg)
Give just the number in L/h/kg; leave the unit off.

As a guide, the following entries are already answered.
molecule	CL free [L/h/kg]
C[C@@H]1C(=O)NN=C2COc3cc(-c4ccccc4F)c(C4CCN(C)CC4(C)C)cc3N21 (stereo partly specified)	39
C[C@@H]1C(=O)NN=C2COc3cc(-c4ccccc4F)c(N(C)C4(C)CN(C)C4)cc3N21	33
C[C@@H]1C(=O)NN=C2COc3cc(-c4ccccc4F)c([C@@H]4CCNC[C@@H]4C)cc3N21	21
C[C@@H]1C(=O)NN=C2COc3cc(-c4ccccc4F)c([C@@H](C)C4(C)CN(C)C4)cc3N21	22

Reported CL free, molecule C[C@@H]1CN(C)CC[C@@H]1c1cc2c(cc1-c1ccccc1F)OCC1=NNC(=O)[C@@H](C)N12 : ____
12

Reported CL free, molecule C[C@@H]1C(=O)NN=C2COc3cc(-c4ccccc4F)c([C@H]4CCN(C)C4)cc3N21 : ____
30

Reported CL free, molecule C[C@@H]1C(=O)NN=C2COc3cc(-c4ccccc4F)c(C4CCN(C)CC4)cc3N21 : ____
14

Reported CL free, molecule C[C@@H]1C(=O)NN=C2COc3cc(-c4ccccc4)c(N(C)C4(C)CN(C)C4)cc3N21 : ____
71

Reported CL free, molecule CCN1CC[C@@H](c2cc3c(cc2-c2ccccc2F)OCC2=NNC(=O)[C@@H](C)N23)[C@@H](C)C1 : ____
24

Reported CL free, molecule C[C@@H]1C(=O)NN=C2COc3cc(-c4ccccc4F)c([C@@H]4CCN(C)C[C@@H]4C)cc3N21 : ____
23
